- System: hLPCAT1 (Homo sapiens)
- Construct: expressed in transfected cells
- Sequence (Q8NF37 whole entry): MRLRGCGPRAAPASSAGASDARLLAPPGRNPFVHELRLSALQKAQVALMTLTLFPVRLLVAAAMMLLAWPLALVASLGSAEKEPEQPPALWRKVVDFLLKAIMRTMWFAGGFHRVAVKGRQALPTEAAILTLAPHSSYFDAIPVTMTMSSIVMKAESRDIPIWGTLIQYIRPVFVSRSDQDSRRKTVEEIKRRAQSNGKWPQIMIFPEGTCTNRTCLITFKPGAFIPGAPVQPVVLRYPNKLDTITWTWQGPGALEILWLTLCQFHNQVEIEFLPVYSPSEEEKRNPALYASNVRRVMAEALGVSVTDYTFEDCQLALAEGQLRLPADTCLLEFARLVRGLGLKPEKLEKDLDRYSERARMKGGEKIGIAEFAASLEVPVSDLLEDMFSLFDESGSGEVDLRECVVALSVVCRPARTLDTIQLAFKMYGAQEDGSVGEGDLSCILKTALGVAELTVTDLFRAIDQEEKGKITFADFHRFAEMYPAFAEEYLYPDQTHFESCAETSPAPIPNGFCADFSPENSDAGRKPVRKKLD
- Procedure Summary: lyso-PAFAT (acetyltransferase) activity assay, PAF product by LC-MS/MS
- Type: biochemical
- Test Conditions: 0, 0.2, 0.6, 2, 6 and 20 μM of each compound in triplicate; LC-MS/MS; read-out: IC50, product PAF, enzyme hLPCAT1
Reported IC50 values for a set of compounds
Quantity: IC50 (nM)

- Compound: "CCCCOC(=O)c1ccc(N2C(=O)C(Cl)=C(Cl)C2=O)cc1 [TSI-11]"
  Quantity: "IC50"
  Unit Info: "nM"
  Relation Symbol: "="
  Assay Result: 1010
- Compound: "CC(C)OC(=O)c1ccc(N2C(=O)C(Cl)=C(Nc3ccccc3O)C2=O)cc1 [TSI-07]"
  Quantity: "IC50"
  Unit Info: "nM"
  Relation Symbol: ">"
  Assay Result: 20000
- Compound: "CCCOC(=O)c1ccc(N2C(=O)C(Cl)=C(Cl)C2=O)cc1 [TSI-10]"
  Quantity: "IC50"
  Unit Info: "nM"
  Relation Symbol: "="
  Assay Result: 2420
